All values here come from patent EP4603105A1.

system: human lung cancer strain NCI-H441; test: NCI-H441 cell proliferation inhibitory activity (CellTiter-Glo, 4 days); assay type: cell-based; settings: 50% proliferation inhibitory concentration, four days, read-out: NCl-H441 IC50
readout label: IC50 (nM)
Your answer is read as nM, so omit the unit and give the number.

Returns the measured IC50 for the input compound. Input: CCO[C@@H]1C[C@H]2C(=O)NC3(CCC3)C(=O)N(C)[C@@H](C3CCCC3)C(=O)N(C)[C@H](C(=O)N(C)C)CC(=O)N(C)[C@@H](CC)C(=O)N[C@@H]([C@@H](C)CC)C(=O)N(C)CC(=O)N(C)[C@H]3C/C=C\CCN(C3=O)[C@@H](Cc3ccc(C(F)(F)F)cc3)C(=O)N(C)CC(=O)N[C@@H](CCc3ccc(C(F)(F)F)c(C)c3)C(=O)N2C1 14.1

Returns the measured IC50 for the input compound. Input: CCCC[C@H]1C(=O)N[C@@H]([C@@H](C)CC)C(=O)N(C)CC(=O)N(C)[C@H]2C/C=C\CCN(C2=O)[C@@H](Cc2ccc(C(F)(F)F)cc2)C(=O)N(C)CC(=O)N[C@@H](CCc2cc(F)c(C(F)(F)F)c(F)c2)C(=O)N2C[C@H](OCC)C[C@H]2C(=O)NC2(CCCC2)C(=O)N(C)[C@@H](C2CCCC2)C(=O)N(C)[C@H](C(=O)N(C)C)CC(=O)N1C 3.7

Returns the measured IC50 for the input compound. Input: CC[C@H](C)[C@@H]1NC(=O)[C@H](CC(C)C)N(C)C(=O)C[C@@H](C(=O)N2CCOCC2)N(C)C(=O)[C@H](C2CCCC2)N(C)C(=O)C2(CCC2)NC(=O)[C@@H]2C[C@@H](OCC(C)C)CN2C(=O)[C@H](CCc2cc(F)c(C(F)(F)F)c(F)c2)NC(=O)CN(C)C(=O)[C@H](Cc2ccc(C(F)(F)F)cc2)N2CCCC[C@@H](C2=O)N(C)C(=O)CN(C)C1=O 18.4

Returns the measured IC50 for the input compound. Input: CCO[C@@H]1C[C@H]2C(=O)NC3(CCC3)C(=O)N(C)[C@@H](C3CCCC3)C(=O)N(C)[C@H](C(=O)N(C)C)CC(=O)N(C)[C@@H](CC(C)C)C(=O)N[C@@H]([C@@H](C)CC)C(=O)N(C)CC(=O)N(C)[C@H]3C/C=C\CCN(C3=O)[C@@H](Cc3ccc(C(F)(F)F)cc3)C(=O)N(C)CC(=O)N[C@@H](CCc3cc(F)c(Cl)c(F)c3)C(=O)N2C1 18.9

Returns the measured IC50 for the input compound. Input: CCO[C@@H]1C[C@H]2C(=O)NC3(CCC3)C(=O)N(C)[C@@H](C3CCCC3)C(=O)N(C)[C@@H](C(=O)N(C)C)CC(=O)N(C)[C@@H](CC)C(=O)N[C@@H]([C@@H](C)CC)C(=O)N(C)CC(=O)N(C)[C@H]3C/C=C\CCN(C3=O)[C@@H](Cc3ccc(C(F)(F)F)cc3)C(=O)N(C)CC(=O)N[C@@H](CCc3cc(F)c(C(F)(F)F)c(F)c3)C(=O)N2C1 398

Returns the measured IC50 for the input compound. Input: CCO[C@@H]1C[C@H]2C(=O)NC3(CCCC3)C(=O)N(C)[C@@H](C(CC)CC)C(=O)N(C)[C@H](C(=O)N3CCCC3)CC(=O)N(C)[C@@H](C)C(=O)N[C@@H]([C@@H](C)CC)C(=O)N(C)CC(=O)N(C)[C@H]3C/C=C\CCN(C3=O)[C@@H](CC3CCCCC3)C(=O)N(C)CC(=O)N[C@@H](CCc3cc(F)c(C(F)(F)F)c(F)c3)C(=O)N2C1 178

Returns the measured IC50 for the input compound. Input: CCCO[C@@H]1C[C@H]2C(=O)NC3(CCC3)C(=O)N(C)[C@@H](C3CCCC3)C(=O)N(C)[C@H](C(=O)N3CCOCC3)CC(=O)N(C)[C@@H](CC(C)C)C(=O)N[C@@H]([C@@H](C)CC)C(=O)N(C)CC(=O)N(C)[C@H]3CCCCN(C3=O)[C@@H](Cc3ccc(C(F)(F)F)cc3)C(=O)N(C)CC(=O)N[C@@H](CCc3cc(F)c(C(F)(F)F)c(F)c3)C(=O)N2C1 13

Returns the measured IC50 for the input compound. Input: CCO[C@@H]1C[C@H]2C(=O)NC3(CCC3)C(=O)N(C)[C@@H](C3CCCC3)C(=O)N(C)[C@H](C(=O)N(C)C)CC(=O)N(C)[C@@H](Cc3ccc(Cl)c(Cl)c3)C(=O)N[C@@H]([C@@H](C)CC)C(=O)N(C)CC(=O)N(C)[C@H]3CCCCCN(C3=O)[C@@H](Cc3ccc(C(F)(F)F)cc3)C(=O)N(C)CC(=O)N[C@@H](CCc3cc(F)c(C(F)(F)F)c(F)c3)C(=O)N2C1 85.2

Returns the measured IC50 for the input compound. Input: CCO[C@@H]1C[C@H]2C(=O)NC3(CCC3)C(=O)N(C)[C@@H](C3CCCC3)C(=O)N(C)[C@H](C(=O)N3CCOCC3)CC(=O)N(C)[C@@H](CC3CC3)C(=O)N[C@@H]([C@@H](C)CC)C(=O)N(C)CC(=O)N(C)[C@H]3C/C=C\CCN(C3=O)[C@@H](Cc3ccc(C)cc3)C(=O)N(C)CC(=O)N[C@@H](CCc3cc(F)c(C(F)(F)F)c(F)c3)C(=O)N2C1 37.6

Returns the measured IC50 for the input compound. Input: CCO[C@@H]1C[C@H]2C(=O)NC3(CCC3)C(=O)N(C)[C@@H](C3CCCC3)C(=O)N(C)[C@H](C(=O)N3CCC3)CC(=O)N(C)[C@@H](CC)C(=O)N[C@@H]([C@@H](C)CC)C(=O)N(C)CC(=O)N(C)[C@H]3C/C=C\CCN(C3=O)[C@@H](CC3CCC(F)(F)CC3)C(=O)N(C)CC(=O)N[C@@H](CCc3cc(F)c(C(F)(F)F)c(F)c3)C(=O)N2C1 103

Returns the measured IC50 for the input compound. Input: CCO[C@@H]1C[C@H]2C(=O)NC3(CCC3)C(=O)N(C)[C@@H](C3CCCC3)C(=O)N(C)[C@H](C(=O)N3CCOCC3)CC(=O)N(C)[C@@H](CC)C(=O)N[C@@H]([C@@H](C)CC)C(=O)N(C)CC(=O)N(C)[C@H]3CC[C@@H](C)CN(C3=O)[C@@H](Cc3ccc(C(F)(F)F)cc3)C(=O)N(C)CC(=O)N[C@@H](CCc3ccc(C(F)(F)F)c(Cl)c3)C(=O)N2C1 6.6
